study target: BCL-XL (Homo sapiens)
Construct: endogenous in cells; host or cells: MOLT-4
Sequence (Q07817 whole entry): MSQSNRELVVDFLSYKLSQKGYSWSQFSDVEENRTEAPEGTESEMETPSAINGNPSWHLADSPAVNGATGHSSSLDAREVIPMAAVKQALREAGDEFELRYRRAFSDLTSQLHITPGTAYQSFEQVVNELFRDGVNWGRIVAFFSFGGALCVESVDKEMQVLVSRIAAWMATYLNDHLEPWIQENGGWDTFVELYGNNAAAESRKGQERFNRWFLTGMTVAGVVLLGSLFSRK
measurement protocol: Bcl-xL ELISA degradation in MOLT-4 cells, 6 h
Type: cell-based
experimental setup: read-out: Bcl-xL ELISA in MOLT-4 degradation 6 h: Mean external-Abs DC50
measured parameter: DC50

C#Cc1ccc(CNC(=O)[C@@H]2C[C@@H](O)CN2C(=O)[C@@H](NC(=O)CCc2ccc(S(=O)(=O)NC(=O)c3nc(N4CCc5cccc(C(=O)Nc6nc7ccccc7s6)c5C4)ccc3-c3cnn(CC(C)C)c3C)cc2)C(C)(C)C)cc1 : > 1000 nM

In the following, a different compound is considered.
// returns DC50 for Cc1ncsc1-c1ccc([C@H](C)NC(=O)[C@@H]2C[C@@H](O)CN2C(=O)[C@@H](NC(=O)CCCCCCN(C)C(=O)c2nc(N3CCc4cccc(C(=O)Nc5nc6ccccc6s5)c4C3)ccc2-c2cnn(CC3CCCCC3)c2C)C(C)(C)C)cc1 with BCL-XL (Homo sapiens); value = 10 to 100 nM
